// reported GI50 at 72 h for each item listed
protocol_description: Antiproliferative activity against HUVEC after 72 hrs by resazurin dye reduction assay
Assay type: cell-based
condition_context: human, HUVEC cells
Express your answer in µg/mL, writing the number without its unit.

Example entries and their recorded answers appear below.
In [3]: df
Out[3]:
                               smiles_input  quantity_unit  readout_value
0  O=C1C(N2CCCCC2)=NN(c2ccccc2)CN1c1ccccc1Cl          µg/mL           24.7
1  O=C1C(N2CCCC2)=NN(c2ccc(Cl)cc2)CN1c1ccccc1Cl          µg/mL           18.9
2    CN(C)C1=NN(c2ccccc2)CN(c2ccccc2Cl)C1=O          µg/mL           34.5

Input: State its GI50 at 72 h for this compound: "O=C1C(N2CCOCC2)=NN(c2ccc(Cl)cc2)CN1c1ccccc1Cl"
Output: 45.6
